Data credit: paper PMC12040169

Method description: in vitro
Conditions used: human, hela cells, % viability
Measurement label: viability at 28.5 h, 10 µM (%)
Supply the numeric figure in %, leaving out any unit text.

> print(dat)
                                   compound  data.value
1  Cc1ncc2c(n1)CCCC2NC(=O)c1ccccc1Cn1cncn1 (stereo not shown)         100
2              O=P(O)(COc1ccccc1)COc1ccccc1        88.8
3  Cc1nc(C)c(C(=O)N2CCc3[nH]c4ccccc4c3C2)o1         110

Item `Cc1ccc2nc(C)cc(C(=O)NNC(=O)Nc3ccc([N+](=O)[O-])cc3)c2c1` has what recorded viability at 28.5 h, 10 µM? 98.8

Item `CCOc1ccc(-c2cncc(Nc3ccc(C#N)cc3)n2)cc1` has what recorded viability at 28.5 h, 10 µM? 87.2

Item CC(C)(C)O/N=C/c1cccnc1 [CBK015761C] has what recorded viability at 28.5 h, 10 µM? 109

Item Cc1nn(-c2ccccc2)c(Cl)c1C1NC(=O)c2c(sc(C)c2C)N1 (stereo not shown) has what recorded viability at 28.5 h, 10 µM? 96

Item `CN(C)CCN(Cc1ccccc1)Cc1c(F)cccc1Cl` has what recorded viability at 28.5 h, 10 µM? 112

Item O=C(CC1CCCO1)N1CCn2c(nnc2-c2cncc(Br)c2)C1 (stereo not shown) has what recorded viability at 28.5 h, 10 µM? 91.4

Item CCN(CC)C(=O)CCNC(=O)c1ccc2c(c1)COC(C1CCN(C(=O)OC(C)(C)C)CC1)O2 (stereo not shown) has what recorded viability at 28.5 h, 10 µM? 92.2

====

Method description: in vitro
Conditions used: human, hela cells, % viability
The entries below are paired with their reported viability at 28.5 h, 10 µM.
Supply the numeric figure in %, leaving out any unit text.

Worked cases, answers included:
> print(dat)
                                   compound  reading.unit  data.value
1  CC(C)(CO)CNc1nc(-c2ccc(F)c(Cl)c2)cnc1N [CBK063484]             %         102
2  COc1cccc(CNC(=O)CCc2nc3ccccc3[nH]2)c1 [CBK288003]             %         115
3  NC(=O)c1c(NC(=O)/C=C/c2c(F)cccc2Cl)sc2c1CCCCCC2 [CBK262631]             %        98.2
4  CCC(Oc1cc(C)ccc1Cl)C(=O)Nc1sccc1C(N)=O (centres unmarked) [CBK268152]             %         105

Item Cc1noc(C)c1NC(=O)c1c(-c2ccccc2)noc1C [CBK200314] has what recorded viability at 28.5 h, 10 µM? 91.8

====

Method description: in vitro
Conditions used: human, hela cells, % viability
The entries below are paired with their reported viability at 28.5 h, 10 µM.
Supply the numeric figure in %, leaving out any unit text.

Item `CC(C)c1ccc(S(=O)(=O)Nc2ccc(Br)c(F)c2)cc1` has what recorded viability at 28.5 h, 10 µM? 100

Item `Cc1ccc(Nc2nc(N)nc(-c3cc4ccccc4o3)n2)cc1` has what recorded viability at 28.5 h, 10 µM? 105

Item `O[C@H](CNCc1ccccc1)COc1cccc2c1C1CCC2CC1` has what recorded viability at 28.5 h, 10 µM? 92.6

Item COc1ccccc1CC(C)NC(=O)c1csc(C(C)=O)c1 (stereo not shown) has what recorded viability at 28.5 h, 10 µM? 114

Item `COc1ccc(CCNc2nc3c(c(=O)n(C)c(=O)n3C)n2Cc2ccccc2Br)cc1OC` has what recorded viability at 28.5 h, 10 µM? 96.7

====

Method description: in vitro
Conditions used: human, hela cells, % viability
Criterion: viability at 28.5 h, 10 µM strictly less than 90%. Met: True. Not met: False.

Look over these answered cases.
> print(dat)
                                   compound  classification
1  Cn1cc(-c2nc(C3COCCN3C(=O)c3cccc(Cl)c3)no2)cn1 (stereo not shown) [CBK305443]            True
2  CC(=O)Nc1ccc(-c2cc(Nc3cccc(N(C)C)c3)ncn2)cc1 [CBK091017]            True
3  Cn1c(-c2cc(=O)c(C(=O)O)c[nH]2)n[nH]c1=O [CBK012603]            True

Is viability at 28.5 h, 10 µM strictly under 90% for the entry O=C(C1=C(O)C(=O)N(c2ncccn2)C1c1cccc([N+](=O)[O-])c1)c1ccc(F)cc1 (stereo not shown) [CBK264932] ? True

Is viability at 28.5 h, 10 µM strictly under 90% for the entry CSCCC(=O)N1CCC(Cn2cncn2)(C2CCCCC2)CC1 [CBK136799] ? False

Is viability at 28.5 h, 10 µM strictly under 90% for the entry COC(=O)c1cc(O)ccc1N [CBK002250] ? False

Is viability at 28.5 h, 10 µM strictly under 90% for the entry CC1(C)CC(=O)c2sc(NC(=O)c3cccc(N4C(=O)CCC4=O)c3)nc2C1 [CBK287565] ? False

Is viability at 28.5 h, 10 µM strictly under 90% for the entry CCn1cc(C(=O)O)c(=O)c2cc(F)c(N3CCN(C(=S)Nc4ccc(F)c(Cl)c4)CC3)cc21 [CBK267921] ? False

Is viability at 28.5 h, 10 µM strictly under 90% for the entry CN(C(=O)c1ccc2c(c1)NC(=O)CS2)c1ccccc1 [CBK296612] ? False

Is viability at 28.5 h, 10 µM strictly under 90% for the entry C=CCO[C@@H]1C[C@H]2C(=O)N3CCN(C(=O)NC4CCCCC4)C[C@H]3C(=O)N2C1 [CBK289619] ? True

====

Method description: in vitro
Conditions used: human, hela cells, % viability
The entries below are paired with their reported viability at 28.5 h, 10 µM.

Worked cases, answers included:
> print(dat)
                                   molecule  data.value
1  COc1ccc2sc(C)[n+](CCC(=O)O)c2c1 [CBK260899B]       83.5%
2  O=C(NCc1cccnc1)C(=O)Nc1cc2c3c(c1)CCC(=O)N3CCC2 [CBK287728]         92%
3    COCCCOc1nc2ccccc2nc1NC(C)C [CBK115737]       99.3%

Item O=C(CCc1ccc(-c2ccc(F)cc2)o1)Nc1ccc(C(=O)O)cc1 [CBK300502] has what recorded viability at 28.5 h, 10 µM? 99%

Item CC(C)(C)NC(=O)COc1ccc(CNc2nc[nH]n2)cc1 [CBK288179] has what recorded viability at 28.5 h, 10 µM? 89.3%

====

Method description: in vitro
Conditions used: human, hela cells, % viability
Measurement label: viability at 28.5 h, 10 µM (%)
Supply the numeric figure in %, leaving out any unit text.

Item `O=C(CN1CCOCC1)NC(=O)Nc1ccccc1` has what recorded viability at 28.5 h, 10 µM? 98

Item COc1ncccc1C(NC(=O)C1CCN(C(=O)OCc2ccccc2)CC1)c1ccccc1C (centres unmarked) has what recorded viability at 28.5 h, 10 µM? 90.8

Item O=C1CCCN1CC#CCN1CCN(Cc2ccccc2)CC1 [CBK023770C] has what recorded viability at 28.5 h, 10 µM? 96.2

Item COc1ccc(-c2cc(C3CCN(C(=O)C4CC4)C3)[nH]n2)cc1 (centres unmarked) has what recorded viability at 28.5 h, 10 µM? 91.5

====

The entries below are paired with their reported viability at 28.5 h, 10 µM.
Method description: in vitro
Conditions used: human, hela cells, % viability
Supply the numeric figure in %, leaving out any unit text.

Worked cases, answers included:
> print(dat)
                                   compound  reading.unit  data.value
1  N#Cc1c(Nc2cccc(C(F)(F)F)c2)sc(C(=O)c2ccc3c(c2)OCO3)c1N [CBK074399]             %        89.2
2  Cc1ccc(S(=O)(=O)NCC(Oc2ccc([N+](=O)[O-])cc2)c2ccccc2)cc1 (stereo not drawn) [CBK262208]             %         101
3  O=C(CSc1nc(=O)cc(O)[nH]1)c1ccccc1 [CBK026570]             %        96.7
4  O=C(O)COC(=O)C1C(c2ccccc2)C(C(=O)O)C1c1ccccc1 (stereo not drawn) [CBK263881]             %        85.9
5  Cc1cc(C)nc(Nc2n[nH]c(-c3ccc(N)cc3)n2)n1 [CBK267131]             %        99.5
6  CC(C)NC(=O)NC[C@H]1C[C@@H]2CCN1C[C@@H]2c1cc(C2CCCC2)nn1C [CBK288744]             %        96.5

Item COC(=O)[C@@H](C)NC(=O)[C@H]1CN(C(=O)c2cccnc2)CCN1C(=O)NC(C)C [CBK289630] has what recorded viability at 28.5 h, 10 µM? 104

Item O=C(CN1CCCCC1)Nc1ccc(S(=O)(=O)N2CCOCC2)cc1 [CBK265577] has what recorded viability at 28.5 h, 10 µM? 90.2

Item CC1CCc2c(sc(NC(=O)c3ccccc3)c2CN2CCCC2)C1 (stereo not drawn) [CBK265908] has what recorded viability at 28.5 h, 10 µM? 98.7

Item Cc1ccc2cc(CN(Cc3ccccc3)C(=O)NCc3c(Cl)cccc3Cl)c(=O)[nH]c2c1C [CBK132088] has what recorded viability at 28.5 h, 10 µM? 81.8

Item Cn1cc(NC(=O)CCn2c(C(F)F)cc3cccnc32)cn1 [CBK284740] has what recorded viability at 28.5 h, 10 µM? 90.2

Item COc1ccc(CNc2nc(-c3cccnc3)nn2C(=O)c2ccc([N+](=O)[O-])cc2)cc1 [CBK268966] has what recorded viability at 28.5 h, 10 µM? 98.9

Item Cc1cc(NC(=O)c2cncnc2)c2ccccc2n1 [CBK122734] has what recorded viability at 28.5 h, 10 µM? 103

Item CC(C)(C)OC(=O)N1CCC2(CC1)N=C(c1ccccc1)C(=S)N2 [CBK288478] has what recorded viability at 28.5 h, 10 µM? 112

Item CC(C)c1ccc(OCCc2cc(C3CCN(C(=O)CC4CCCC4)C3)n[nH]2)cc1 (stereo not drawn) [CBK286129] has what recorded viability at 28.5 h, 10 µM? 102
